Tested on: MS2 coat protein
Measurement Protocol: apparent KD of MS2 coat protein; designed switch direction (-1 OFF switch, 1 ON switch): -1; higher = weaker reporter binding
Condition Parameters: input ligand: none
Entries and their measured apparent KD of MS2 coat protein follow.

Sequence Record	Tgt	apparent KD of MS2 coat protein / nM
GGACAUAAAGUCAGGAUAUUAAGGCGAACAAGCGAUGAGAAGGGACAUGAGGAUCACCCAUGUGAUUCUCAUCA [Isedzaor] (Eterna round: R97, puzzle: Brourd's mod of Exclusion 4)	MS2 coat protein	14
UUUCCACAUGAGGAUCACCCAUGUCAGGAUAUCUCCACAUCUUCGGAUGUGGCGUGUUAGAGAAGGGACAUGUA [EX1 A.22] (Eterna round: R97, puzzle: Exclusion 1)	MS2 coat protein	33.7
CUGGACCCGGUAGGAUAUAUUGUGGGCGGGCGUGGAACGACAUGAGGAUCACCCAUGUGAUUGAGGUAGAAGGGCCGAGAGGUU [Excl-NG2-LRO18] (Eterna round: R96, puzzle: Exclusion NG 2)	MS2 coat protein	61.8

----------
Catalogue of apparent KD of MS2 coat protein readings, one per entry.
System: MS2 coat protein
Measurement Protocol: apparent KD of MS2 coat protein; higher = weaker reporter binding
Condition Parameters: Eterna round: R107; input ligand: theophylline 2 mM

Sequence Record	apparent KD of MS2 coat protein
GGACCAUGGAGCGAUACCAGCUUGAGUGUACUGGCCAGGUACAUGAGGAUCACCCAUGUAAGCCCUUGGCAGCGCUCCAUGGUCC [#1 Exclusion - Theophylline B Attempt #25 (HarryS)]	30.8 nM
AUAUUAAUCGGAAGGAGCGGUACAUGAGGAUCACCCAUGUGCUAAGCUAGCAGAUCCCGUUACCAGGUAGGUCGCCGAGUUAUGA [Titeonra]	29.5 nM
AGAGUCUAGUCGGCCGCCACUCAUGUCCAAAGGACAUGAGGAUCACCCAUGUACCAAUGGUACAUGAGGACCGGGACUGGACUCA [Omei Tryp B SS C v2]	120 nM

----------
Test system: MS2 coat protein
Measurement Protocol: apparent KD of MS2 coat protein; designed switch direction (-1 OFF switch, 1 ON switch): -1; higher = weaker reporter binding
Condition Parameters: input ligand: none

Sequence Record	apparent KD of MS2 coat protein / nM
CGGGUGAUAGGAUAUGACCAAGGUGACAUGAGGAUCACCCAUGUGAUCGUCGUAGACCUGUCAGAAGGGUUCCCGA [Bivevebe] (Eterna round: R97, puzzle: Exclusion 5)	34.9
UAUUUCAUCUAUGGGAGUAACAUGAGGAUCACCCAUGUAUGUCUUGUUUUUUGUUCGUCUAAGACUUUCUGAUCAGU [JR_SV3TOV1_Sub031] (Eterna round: R96, puzzle: Sensor v3, turn-off variant 1)	35.6
AUAAAUCAUGUAGGAUAUGUGUGGCGAAGCUAUACAGAAGGACAUGAGGAUCACCCAUGUUCUUCCGUCUGCGUACAGACGGAA [11th something] (Eterna round: R96, puzzle: Exclusion NG 1)	29
CUGUGCACGCUGCGGUCCUACAUGAGGAUCACCCAUGUGGUCUGGUGGCGUGGGUCGCCGGACUUGGCUCGUCUUGU [salish99_S_TOV1_R5_024] (Eterna round: R97, puzzle: Sensor, turn-off variant 1)	19.3
CUCCGGCGUGUAGGAUAUGGAUCCGAUUAGGAUCCAGAAGGACAUGAGGAUCACCCAUGUACAUGUAAACAGUCAUCACCGGAC [salish99_ExNG1_r04_204] (Eterna round: R96, puzzle: Exclusion NG 1)	18.7
